Provenance of the data: ChEMBL document CHEMBL1201862

system: UO-31; test: NCI tumour cell line growth inhibition, 48 h
Activity calls are given as the source filed them. Rule as the data show it: active = GI50 up to about 1.1 µM and inactive = higher.
Catalogue of GI50 readings, one per entry.

MOLECULE: COc1nc2ncc([C@@H](O)[C@H](O)CO)nc2c(=O)n1C
GI50: > 100 µM (inactive)

MOLECULE: COC(=O)c1ccc(NCc2cc(OC)ccc2OC)cc1
GI50: 45.6 µM (inactive)

MOLECULE: Cc1ccc2[nH]c3c(c2c1)CCC/C3=N/N=C(N)N
GI50: 1.95 µM (inactive)

MOLECULE: O=[N+]([O-])C1=Cc2c(O)ccc(O)c2C2OC=CC12 (configuration not stated)
GI50: 14.6 µM (inactive)

MOLECULE: O=[N+]([O-])c1ccc(NSc2ccccc2)cc1
GI50: 26.8 µM (inactive)

MOLECULE: COC(=O)C1(Cc2ccc3c(c2)CCC3)Cc2ccc3c(c2C1)CCC3 (configuration not stated)
GI50: 18.7 µM (inactive)

MOLECULE: COc1ccccc1OC(=O)/C=C/c1ccccc1
GI50: > 100 µM (inactive)

MOLECULE: CC(=O)O[C@H]1CC[C@@]2(C)C(=CC[C@@H]3C2CC[C@]2(C)Nc4oncc4CC32)C1 (some centres not stated)
GI50: 18.3 µM (inactive)

MOLECULE: Cc1ccc(S(=O)(=O)NCCCSCCN)cc1
GI50: > 100 µM (inactive)

MOLECULE: O=C(NCc1ccc2ccc3cccnc3c2n1)c1ccc[n+](Cc2ccccc2)c1
GI50: > 100 µM (inactive)

MOLECULE: Cc1ccc2nc(N/N=C/c3sccc3C)cc(C)c2c1
GI50: > 100 µM (inactive)

MOLECULE: COc1cc2c(cc1C)NC(=O)/C2=C\c1ccncc1
GI50: 4.1 µM (inactive)

MOLECULE: CS(=O)(=O)c1nc(-c2cc3c(c(S(C)(=O)=O)n2)CCC3)cc2c1CCC2
GI50: > 100 µM (inactive)

MOLECULE: CCN1CC2=C(N=c3s/c(=C\c4ccc(Cl)cc4)c(=O)n3C2c2ccc(Cl)cc2)/C(=C/c2ccc(Cl)cc2)C1 (configuration not stated)
GI50: > 100 µM (inactive)

MOLECULE: C[C@@H]1C(=O)O[C@H]1[C@H](O)CO
GI50: > 10 µM (inactive)

MOLECULE: COc1cccc(-c2cc(O)c3ccccc3n2)c1
GI50: 6.18 µM (inactive)

MOLECULE: N#Cc1c(-c2ccccc2)c(CN2CCCCC2)c(=O)n2c1[nH]c1ccccc12
GI50: 26.7 µM (inactive)

MOLECULE: COc1ccc2c(c1)c1c(n2CCN2CCOCC2)-c2cccc(OC)c2CC1
GI50: 18.6 µM (inactive)

MOLECULE: O=C1/C(=C/c2cccs2)NC(=S)N1CN1CCOCC1
GI50: > 100 µM (inactive)

MOLECULE: Cc1ccc(S(=O)(=O)C2c3nc4ccccc4cc3-c3nc4ccccc4nc32)cc1 (configuration not stated)
GI50: > 100 µM (inactive)

MOLECULE: C/C(=N\Nc1cc(CN2CCCC2)c(-c2ccc(Cl)cc2)nn1)C(=O)O
GI50: > 100 µM (inactive)

MOLECULE: COC(=O)/C(=N\NC(=S)NN)C(C(=O)C(=O)Nc1ccccc1C(N)=O)c1nc2ccccc2nc1O (configuration not stated)
GI50: > 100 µM (inactive)
